Data origin, for the record: patent US5227488A

Each entry below carries its recorded pIC50.
Molecular target: 5-HT1A (Rattus norvegicus)
Sequence (P19327 1-422): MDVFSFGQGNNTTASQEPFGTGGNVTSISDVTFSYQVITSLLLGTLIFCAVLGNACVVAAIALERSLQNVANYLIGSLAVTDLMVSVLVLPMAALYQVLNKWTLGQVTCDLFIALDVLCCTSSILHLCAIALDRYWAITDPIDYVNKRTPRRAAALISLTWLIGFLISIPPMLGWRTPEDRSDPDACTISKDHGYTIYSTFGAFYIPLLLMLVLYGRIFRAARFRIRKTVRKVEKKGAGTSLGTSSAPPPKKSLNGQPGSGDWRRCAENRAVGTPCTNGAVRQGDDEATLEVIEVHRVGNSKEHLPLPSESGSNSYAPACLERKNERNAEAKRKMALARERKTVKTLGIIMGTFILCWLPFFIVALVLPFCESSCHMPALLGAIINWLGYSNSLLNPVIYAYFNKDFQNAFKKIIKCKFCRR
Scale: pIC50 equals -log10([C]), with [C] in mol/L.

Example compounds with recorded pIC50:
COc1ccc2[nH]cc(SCCNCCCCN3C(=O)C4C5C=CC(C6CC56)C4C3=O)c2c1 (stereo not drawn) :: 8.10
O=C1c2ccccc2S(=O)(=O)N1CCCCN1CCN(c2ncccn2)CC1 [ipsapirone, reference compound] :: 7.60
O=C1CC2(CCCC2)CC(=O)N1CCCCNCCSc1c[nH]c2ccccc12 :: 7.40

Problem: If you can, please state the reported pIC50 value of "COc1ccc2[nH]cc(SCCNCCCCN3C(=O)c4ccccc4C3=O)c2c1" .
Result: 7.70

Problem: "O=C1c2ccccc2S(=O)(=O)N1CCCCNCCSc1c[nH]c2ccccc12" , same question.
Result: 7.47

Problem: COc1ccc2[nH]cc(SCCNCCCCN3C(=O)C4CC=CCC4C3=O)c2c1 (stereo not drawn) , same question.
Result: 7.77
